Reported pEC50 by item:
tested on: OXGR1 mutants (variant named in the endpoint); assay: Calcium mobilization assay, OXGR1 mutants in HEK293; conditions: OXGR1 R288Q;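 note: human OXGR1 variants transiently expressed in HEK293 cells, with intracellular calcium read out by Fluo-4 AM fluorescence, measured 24 h after transfection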
pEC50: −log10 of the molar value. Structures can show the parent of a compound that is named as a salt.
READOUT: pEC50

>  <MOLECULE>
O=C(O)CCC(=O)O [SUC, succinate]

>  <OBSERVED>
< 3.00

$$$$
>  <MOLECULE>
O=C(O)/C=C\C(=O)O [MA, maleate]

>  <OBSERVED>
< 3.00

$$$$
>  <MOLECULE>
C=C(CC(=O)O)C(=O)O [ITA, itaconate]

>  <OBSERVED>
< 3.00

$$$$
